- EXPERIMENTAL_SYSTEM: SIK1 (Homo sapiens, UniProt P57059)
- Sequence (P57059 whole entry): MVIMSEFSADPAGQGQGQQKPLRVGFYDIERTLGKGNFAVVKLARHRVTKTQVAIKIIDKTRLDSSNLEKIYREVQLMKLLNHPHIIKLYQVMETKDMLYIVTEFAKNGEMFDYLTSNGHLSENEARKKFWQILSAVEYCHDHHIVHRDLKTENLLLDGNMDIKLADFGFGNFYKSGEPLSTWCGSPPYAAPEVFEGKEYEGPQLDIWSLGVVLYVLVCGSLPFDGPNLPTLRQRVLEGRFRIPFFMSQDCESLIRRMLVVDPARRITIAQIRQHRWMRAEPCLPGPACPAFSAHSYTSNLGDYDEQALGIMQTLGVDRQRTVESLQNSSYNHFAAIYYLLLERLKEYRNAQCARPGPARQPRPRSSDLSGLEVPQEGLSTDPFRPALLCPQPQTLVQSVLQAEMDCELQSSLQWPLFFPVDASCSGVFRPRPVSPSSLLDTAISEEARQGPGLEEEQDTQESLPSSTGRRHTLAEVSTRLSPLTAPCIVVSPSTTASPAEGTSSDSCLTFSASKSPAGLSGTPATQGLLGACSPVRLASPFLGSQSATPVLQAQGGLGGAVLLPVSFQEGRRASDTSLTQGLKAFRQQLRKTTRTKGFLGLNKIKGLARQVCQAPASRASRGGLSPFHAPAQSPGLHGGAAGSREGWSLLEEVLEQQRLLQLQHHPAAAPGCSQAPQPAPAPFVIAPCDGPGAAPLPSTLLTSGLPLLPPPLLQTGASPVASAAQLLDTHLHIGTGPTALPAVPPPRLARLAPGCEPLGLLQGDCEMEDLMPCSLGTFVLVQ
- ASSAY: SIK1 kinase assay, IMAP fluorescence polarization
- Assay type: biochemical
- CONDITION_LABEL: 50 or 100 μM ATP; average; read-out: SIK1-AVERAGE Ki
pKi: −log10 of the molar value.
ENDPOINT_LABEL: pKi

>>> print(df.to_string())
                                    molecule                  experimental_system  recorded_result
 0  CNC1CCCC(N2C(=O)N(c3c(C)cccc3F)Cc3cnc(N)cc32)C1 (stereo not drawn)  SIK1 (Homo sapiens, UniProt P57059)             8.96
 1  CN[C@H]1CC[C@H](N2C(=O)N(c3c(C)cccc3F)Cc3cnc(N)nc32)CC1  SIK1 (Homo sapiens, UniProt P57059)             9.77
 2  Cc1cccc(F)c1N1Cc2cnc(N)nc2N(C2CCCC(N)C2)C1=O (stereo not drawn)  SIK1 (Homo sapiens, UniProt P57059)             9.17
 3  Cc1cccc(F)c1N1Cc2cnc(N)nc2N([C@@H]2CCCCNC2)C1=O  SIK1 (Homo sapiens, UniProt P57059)             8.71
 4  Cc1cccc(F)c1N1Cc2cnc(N(C)C)cc2N([C@H]2CCC[C@@H](N(C)C)C2)C1=O (relative stereo)  SIK1 (Homo sapiens, UniProt P57059)             6.58
 5  Cc1cccc(F)c1N1Cc2cnccc2N([C@H]2CCCCNC2)C1=O  SIK1 (Homo sapiens, UniProt P57059)             7.38
 6  Cc1cccc(F)c1N1Cc2cnc(N)nc2N([C@H]2CC[C@H](N)CC2)C1=O  SIK1 (Homo sapiens, UniProt P57059)             9.16
 7  Cc1cccc(F)c1N1Cc2cnc(N)cc2N(CC2CCNCC2)C1=O  SIK1 (Homo sapiens, UniProt P57059)             9.03
 8  Cc1cccc(F)c1N1Cc2cnc(N)nc2N([C@H]2CC[C@H](N(C)C)CC2)C1=O  SIK1 (Homo sapiens, UniProt P57059)             9.13
 9  Cc1cccc(F)c1N1Cc2cnc(N)cc2N([C@H]2CCCN(C)C2)C1=O  SIK1 (Homo sapiens, UniProt P57059)             9.00
10  Cc1cccc(F)c1N1Cc2cnc(N)cc2N([C@@H]2CCN(C)C2)C1=O  SIK1 (Homo sapiens, UniProt P57059)             8.49
11  Cc1cccc(F)c1N1Cc2cnc(N)cc2N([C@@H]2CCCN(C)CC2)C1=O  SIK1 (Homo sapiens, UniProt P57059)             9.33
12  Cc1cccc(F)c1N1Cc2cnc(N)cc2N([C@H]2CCN(C)C2)C1=O  SIK1 (Homo sapiens, UniProt P57059)             8.01
13  Cc1cccc(F)c1N1Cc2cnc(N)cc2N([C@H]2CC[C@@H](N(C)C)CC2)C1=O  SIK1 (Homo sapiens, UniProt P57059)             9.42
14  Cc1cccc(F)c1N1Cc2cnc(N)cc2N([C@H]2CCCNCC2)C1=O  SIK1 (Homo sapiens, UniProt P57059)             8.68
15  Cc1cccc(F)c1N1Cc2cnc(N)cc2N([C@H]2CCNC2)C1=O  SIK1 (Homo sapiens, UniProt P57059)             8.89
16  Cc1cccc(F)c1N1Cc2cnc(N)nc2N([C@@H]2CCCN(C)C2)C1=O  SIK1 (Homo sapiens, UniProt P57059)             8.49
17  Cc1cccc(F)c1N1Cc2cnc(N)cc2N([C@@H]2CCCCNC2)C1=O  SIK1 (Homo sapiens, UniProt P57059)             9.71
